property: logP

Study these solved cases before continuing.
chemical-string	logP
CC(=O)C=Cc1ccc(Cl)cc1	2.8
N#Cc1ccc(C=CC(=O)C(F)(F)F)cc1	2.42

[P] COc1ccc(C=CC(C)=O)cc1
[Q] O=C(C=Cc1ccc(Cl)cc1)C(F)(F)F
Query: Between P and Q , which one has the lower reported logP value? Please identify the chosen entry by its label.
Reply: P
(P: 2.25, Q: 3.63)

* * *

property: logP

chemical-string	logP
CCc1ccc(C=CC(C)=O)cc1	3.26
COc1cccc(C=CC(C)=O)c1	2.27
COc1ccccc1C=CC(C)=O	2.42
CC(=O)C=Cc1ccccc1Cl	2.85
CC(=O)C=Cc1cccc(Cl)c1	2.81
CC(=O)C=Cc1ccc(N(C)C)cc1	2.66

* * *

property: logP

Study these solved cases before continuing.
chemical-string	property	observed
CC(=O)C=Cc1cccc(C)c1	logP	2.68
O=C(C=Cc1ccccc1Cl)C(F)(F)F	logP	3.5
CC(=O)C=Cc1ccccc1C(F)(F)F	logP	3.14
CC(=O)C=Cc1ccc(C)cc1	logP	2.65
N#Cc1cccc(C=CC(=O)C(F)(F)F)c1	logP	2.45

[1] CC(=O)C=Cc1ccc(Br)cc1
[2] CC(=O)C=Cc1ccc(C#N)cc1
Query: Between 1 and 2 , which one has the lower reported logP value? Please identify the chosen entry by its label.
Reply: 2
(2: 1.64, 1: 3.03)

* * *

property: logP

chemical-string	observed
CC(=O)C=Cc1cccc(C(F)(F)F)c1	3.03
CC(=O)C=Cc1ccc(O)cc1	1.86
O=C(C=Cc1cccc(Cl)c1)C(F)(F)F	3.58
CC(=O)C=Cc1cccc(F)c1	2.25
CC(=O)C=Cc1ccc([N+](=O)[O-])cc1	1.9

[P] CC(=O)C=Cc1ccc(OC(C)=O)cc1
[Q] CC(=O)C=Cc1ccccc1F
Query: Between P and Q , which one has the lower reported logP value? Please identify the chosen entry by its label.
Reply: P
(P: 1.63, Q: 2.34)

[A] CC(=O)C=Cc1cccc([N+](=O)[O-])c1
[B] CC(=O)C=Cc1cccc(Br)c1
Query: Between A and B , which one has the lower reported logP value? Please identify the chosen entry by its label.
Reply: A

* * *

property: logP

Study these solved cases before continuing.
chemical-string	observed
COc1cccc(C=CC(=O)C(F)(F)F)c1	3.05
CC(=O)C=Cc1ccc(C(F)(F)F)cc1	3.13
CC(=O)C=Cc1cccc(C#N)c1	1.59
CC(=O)C=Cc1ccccc1C	2.6
O=C(C=Cc1cccc([N+](=O)[O-])c1)C(F)(F)F	2.66

[I] CC(=O)C=Cc1ccc(F)cc1
[II] COc1ccccc1C=CC(=O)C(F)(F)F
Query: Return label of the item with the larger logP. Candidates: I , II . Please identify the chosen entry by its label.
Reply: II

[a] CC(=O)C=Cc1ccccc1O
[b] COc1ccc(C=CC(=O)C(F)(F)F)cc1
Query: Return label of the item with the larger logP. Candidates: a , b . Please identify the chosen entry by its label.
Reply: b
